- TESTED SYSTEM: Biotinylated CoV2 Spike ECD PreS-AVI protein (SARS-CoV-2, UniProt P0DTC2 14-1208)
- ASSAY TEXT: Octet binning; competitor 13C8
Tag: MET if measured binning response is not below 0.1, NOT MET if it is.

Reference set, count: 5
- BINDER: "1A11 VHH-Fc (Fc fusion) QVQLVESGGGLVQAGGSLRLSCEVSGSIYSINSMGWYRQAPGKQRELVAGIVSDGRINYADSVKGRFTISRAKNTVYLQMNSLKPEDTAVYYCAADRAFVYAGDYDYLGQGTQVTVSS"
  GROUP LABEL: "MET"
- BINDER: "19E10 VHH-Fc (Fc fusion) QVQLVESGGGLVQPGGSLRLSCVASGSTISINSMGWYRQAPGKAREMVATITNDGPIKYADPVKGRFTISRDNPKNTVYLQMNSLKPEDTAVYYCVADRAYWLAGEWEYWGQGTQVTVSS"
  GROUP LABEL: "MET"
- BINDER: "8E9 VHH-Fc (Fc fusion) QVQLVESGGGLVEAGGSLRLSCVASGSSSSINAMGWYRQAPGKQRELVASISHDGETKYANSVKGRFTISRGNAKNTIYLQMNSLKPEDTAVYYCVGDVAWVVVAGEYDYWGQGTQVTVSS"
  GROUP LABEL: "MET"
- BINDER: "9B2 VHH-Fc (Fc fusion) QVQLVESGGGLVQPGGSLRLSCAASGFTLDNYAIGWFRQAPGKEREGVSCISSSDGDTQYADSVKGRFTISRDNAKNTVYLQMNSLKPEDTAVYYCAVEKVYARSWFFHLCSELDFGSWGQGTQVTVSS"
  GROUP LABEL: "MET"
- BINDER: "5A6 VHH-Fc (Fc fusion) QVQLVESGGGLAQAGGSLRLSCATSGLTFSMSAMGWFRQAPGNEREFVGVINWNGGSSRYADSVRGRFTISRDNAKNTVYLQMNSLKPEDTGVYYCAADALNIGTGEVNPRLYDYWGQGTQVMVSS"
  GROUP LABEL: "NOT MET"

Kindly review the next binder as well.
Please indicate if the recorded binning response for 11F8 VHH-Fc (Fc fusion) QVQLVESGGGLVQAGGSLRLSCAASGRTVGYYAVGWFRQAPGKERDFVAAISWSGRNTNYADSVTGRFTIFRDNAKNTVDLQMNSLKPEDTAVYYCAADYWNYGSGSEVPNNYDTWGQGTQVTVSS meets or exceeds 0.1.
MET
